Target: Ephrin type-A receptor 1 (Homo sapiens)
Sequence (P21709 whole entry): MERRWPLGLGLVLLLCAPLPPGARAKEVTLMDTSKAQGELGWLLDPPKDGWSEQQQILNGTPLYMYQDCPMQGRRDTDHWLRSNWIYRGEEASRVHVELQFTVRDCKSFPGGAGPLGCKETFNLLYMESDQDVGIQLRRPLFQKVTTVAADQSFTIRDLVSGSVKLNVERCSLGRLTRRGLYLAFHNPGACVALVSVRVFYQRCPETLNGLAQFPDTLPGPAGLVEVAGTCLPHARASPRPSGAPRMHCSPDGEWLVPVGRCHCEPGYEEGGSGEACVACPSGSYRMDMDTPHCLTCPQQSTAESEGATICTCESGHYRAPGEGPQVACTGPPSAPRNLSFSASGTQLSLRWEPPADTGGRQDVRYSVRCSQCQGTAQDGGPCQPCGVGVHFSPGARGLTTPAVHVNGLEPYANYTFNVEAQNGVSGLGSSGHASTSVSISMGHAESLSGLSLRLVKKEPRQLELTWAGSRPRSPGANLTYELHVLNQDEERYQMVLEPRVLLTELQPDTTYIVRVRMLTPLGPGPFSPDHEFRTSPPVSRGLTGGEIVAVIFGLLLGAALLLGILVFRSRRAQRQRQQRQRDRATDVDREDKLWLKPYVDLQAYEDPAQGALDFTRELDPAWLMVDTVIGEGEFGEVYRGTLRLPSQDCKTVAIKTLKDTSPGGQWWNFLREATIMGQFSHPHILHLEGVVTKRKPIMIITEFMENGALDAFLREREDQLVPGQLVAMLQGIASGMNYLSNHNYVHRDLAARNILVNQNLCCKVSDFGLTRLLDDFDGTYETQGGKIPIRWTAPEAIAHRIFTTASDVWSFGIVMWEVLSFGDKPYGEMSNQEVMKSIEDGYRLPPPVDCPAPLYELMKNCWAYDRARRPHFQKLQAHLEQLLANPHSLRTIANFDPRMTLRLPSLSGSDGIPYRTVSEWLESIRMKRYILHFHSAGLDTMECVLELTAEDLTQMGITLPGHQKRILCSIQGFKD
pIC50: −log10 of the molar value.
REPORTED_METRIC: pIC50

In [3]: df
Out[3]:
                              smiles_record  reported_metric  observed_result
0  Cc1ccc(O)c(C)c1-c1cc(-c2cc(F)nc(N3CC[C@@H](N)C3)c2)cc(C(N)=O)c1N            pIC50             6.96

###

biological target: Protein-tyrosine kinase 6 (Homo sapiens, UniProt Q13882)
Sequence (Q13882 whole entry): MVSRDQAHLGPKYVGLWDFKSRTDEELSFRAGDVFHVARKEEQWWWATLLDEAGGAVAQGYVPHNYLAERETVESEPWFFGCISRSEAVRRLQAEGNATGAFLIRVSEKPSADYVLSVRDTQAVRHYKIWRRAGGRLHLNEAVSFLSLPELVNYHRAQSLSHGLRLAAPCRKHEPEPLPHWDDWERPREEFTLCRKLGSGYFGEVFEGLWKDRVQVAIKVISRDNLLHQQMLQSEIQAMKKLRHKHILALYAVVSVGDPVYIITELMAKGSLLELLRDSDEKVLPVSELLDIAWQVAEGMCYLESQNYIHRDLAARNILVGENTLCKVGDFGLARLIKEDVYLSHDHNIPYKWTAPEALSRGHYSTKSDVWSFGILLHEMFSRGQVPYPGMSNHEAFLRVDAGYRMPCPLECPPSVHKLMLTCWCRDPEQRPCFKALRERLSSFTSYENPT
REPORTED_METRIC: IC50 (nM)

>>> print(df.to_string())
                              smiles_record  readout_unit  observed_result
0  Cc1ccc(O)c(C)c1-c1cc(-c2cc(F)nc(N3CC[C@@H](N)C3)c2)cc(C(N)=O)c1N            nM                8

###

target: Wee1-like protein kinase (Homo sapiens); assay: Inhibition of recombinant full-length human GST-tagged Wee1 expressed in insect cells using KIGEGTYGVVYKG as substrate preincubated for 15 mins followed by substrate and ATP addition and measured after 1 hr by ADP-Glo kinase assay
Sequence (P30291 whole entry): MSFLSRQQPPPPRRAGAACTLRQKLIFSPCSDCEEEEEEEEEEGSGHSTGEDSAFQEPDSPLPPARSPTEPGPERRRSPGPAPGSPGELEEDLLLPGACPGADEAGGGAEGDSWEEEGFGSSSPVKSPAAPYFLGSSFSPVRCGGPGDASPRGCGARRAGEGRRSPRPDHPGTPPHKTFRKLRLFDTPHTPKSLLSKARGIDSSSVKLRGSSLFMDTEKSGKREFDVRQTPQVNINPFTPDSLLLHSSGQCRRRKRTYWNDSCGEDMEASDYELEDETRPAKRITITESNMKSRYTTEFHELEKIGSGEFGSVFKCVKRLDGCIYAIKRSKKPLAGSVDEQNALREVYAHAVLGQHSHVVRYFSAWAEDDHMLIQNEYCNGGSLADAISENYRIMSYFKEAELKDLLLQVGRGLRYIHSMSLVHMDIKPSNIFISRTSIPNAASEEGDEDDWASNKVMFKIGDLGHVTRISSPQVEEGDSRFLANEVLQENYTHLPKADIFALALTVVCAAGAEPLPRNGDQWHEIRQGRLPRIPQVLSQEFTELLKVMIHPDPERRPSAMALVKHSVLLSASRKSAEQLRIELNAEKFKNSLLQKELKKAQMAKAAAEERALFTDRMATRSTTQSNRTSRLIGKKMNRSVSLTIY
REPORTED_METRIC: IC50 (µM)

                              smiles_record  reported_metric  observed_result
0  Cc1ccc(O)c(C)c1-c1cc(-c2cc(F)nc(N3CC[C@@H](N)C3)c2)cc(C(N)=O)c1N             IC50              8.2

###

molecular target: Activated CDC42 kinase 1 (Homo sapiens, UniProt Q07912); experiment: Inhibition of ACK1 (unknown origin)
Sequence (Q07912 whole entry): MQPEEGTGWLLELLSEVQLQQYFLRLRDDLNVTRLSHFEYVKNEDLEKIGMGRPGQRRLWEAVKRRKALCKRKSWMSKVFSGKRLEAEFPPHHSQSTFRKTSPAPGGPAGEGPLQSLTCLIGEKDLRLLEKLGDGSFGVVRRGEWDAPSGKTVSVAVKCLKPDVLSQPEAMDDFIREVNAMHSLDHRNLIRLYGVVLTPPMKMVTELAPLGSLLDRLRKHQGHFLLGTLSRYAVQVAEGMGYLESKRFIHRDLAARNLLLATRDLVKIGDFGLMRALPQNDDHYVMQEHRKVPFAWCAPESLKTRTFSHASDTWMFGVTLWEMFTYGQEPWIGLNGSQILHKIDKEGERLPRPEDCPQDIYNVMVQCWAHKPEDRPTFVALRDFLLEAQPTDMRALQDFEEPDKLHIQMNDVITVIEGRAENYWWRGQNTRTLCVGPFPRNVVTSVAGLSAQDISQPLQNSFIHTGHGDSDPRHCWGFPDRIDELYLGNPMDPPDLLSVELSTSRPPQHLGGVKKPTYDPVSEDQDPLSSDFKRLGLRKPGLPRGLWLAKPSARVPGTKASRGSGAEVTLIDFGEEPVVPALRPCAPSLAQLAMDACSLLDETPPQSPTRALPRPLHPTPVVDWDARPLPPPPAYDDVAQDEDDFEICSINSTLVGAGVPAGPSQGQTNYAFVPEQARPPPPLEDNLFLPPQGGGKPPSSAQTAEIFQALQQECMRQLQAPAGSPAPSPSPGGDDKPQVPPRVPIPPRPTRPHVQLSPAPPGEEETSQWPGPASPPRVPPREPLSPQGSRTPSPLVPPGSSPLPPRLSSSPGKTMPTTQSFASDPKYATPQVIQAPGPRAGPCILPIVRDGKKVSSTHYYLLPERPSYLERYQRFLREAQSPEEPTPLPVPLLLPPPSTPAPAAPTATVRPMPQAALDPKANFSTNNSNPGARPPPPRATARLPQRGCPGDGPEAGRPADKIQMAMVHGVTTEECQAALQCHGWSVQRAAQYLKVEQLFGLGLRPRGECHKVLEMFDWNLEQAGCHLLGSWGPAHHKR
pIC50: −log10 of the molar value.
REPORTED_METRIC: pIC50

>>> df
                              smiles_record                             tested_target  reported_metric  observed_result
0  Cc1ccc(O)c(C)c1-c1cc(-c2cc(F)nc(N3CC[C@@H](N)C3)c2)cc(C(N)=O)c1N  Activated CDC42 kinase 1 (Homo sapiens, UniProt Q07912)            pIC50             6.57

###

biological target: Membrane-associated tyrosine- and threonine-specific cdc2-inhibitory kinase (Homo sapiens, UniProt Q99640); assay: Inhibition of recombinant human GST-tagged PKMYT1 (75 to 362 residues) expressed in insect cells using GTDEGIYDVPLLG as substrate preincubated for 15 mins followed by substrate and ATP addition and measured after 1 hr by ADP-Glo kinase assay
Sequence (Q99640 whole entry, the tested form may be a part): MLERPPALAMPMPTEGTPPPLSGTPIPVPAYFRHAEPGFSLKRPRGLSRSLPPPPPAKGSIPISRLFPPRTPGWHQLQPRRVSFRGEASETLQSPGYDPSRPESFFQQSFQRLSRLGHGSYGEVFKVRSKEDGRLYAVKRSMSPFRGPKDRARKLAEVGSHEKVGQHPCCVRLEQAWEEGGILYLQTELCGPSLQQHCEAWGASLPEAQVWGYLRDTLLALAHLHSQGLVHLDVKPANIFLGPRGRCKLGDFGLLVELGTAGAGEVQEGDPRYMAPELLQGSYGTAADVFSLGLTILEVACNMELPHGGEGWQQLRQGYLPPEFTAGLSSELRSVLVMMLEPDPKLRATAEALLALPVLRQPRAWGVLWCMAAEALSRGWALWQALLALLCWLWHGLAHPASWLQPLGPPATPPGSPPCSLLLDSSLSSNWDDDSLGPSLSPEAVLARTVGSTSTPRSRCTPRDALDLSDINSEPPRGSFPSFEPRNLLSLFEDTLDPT
pIC50: −log10 of the molar value.
Below: a set of entries, each annotated with reported pIC50.
REPORTED_METRIC: pIC50

In [3]: df
Out[3]:
                              smiles_record  observed_result
0  Cc1ccc(O)c(C)c1-c1cc(-c2ccncc2)cc(C(N)=O)c1N             7.00
1  Cc1ccc(O)c(C)c1-c1cc(-c2cc(F)nc(N3CC[C@@H](N)C3)c2)cc(C(N)=O)c1N             7.78

###

molecular target: Tyrosine-protein kinase Blk (Homo sapiens)
Sequence (P51451 whole entry): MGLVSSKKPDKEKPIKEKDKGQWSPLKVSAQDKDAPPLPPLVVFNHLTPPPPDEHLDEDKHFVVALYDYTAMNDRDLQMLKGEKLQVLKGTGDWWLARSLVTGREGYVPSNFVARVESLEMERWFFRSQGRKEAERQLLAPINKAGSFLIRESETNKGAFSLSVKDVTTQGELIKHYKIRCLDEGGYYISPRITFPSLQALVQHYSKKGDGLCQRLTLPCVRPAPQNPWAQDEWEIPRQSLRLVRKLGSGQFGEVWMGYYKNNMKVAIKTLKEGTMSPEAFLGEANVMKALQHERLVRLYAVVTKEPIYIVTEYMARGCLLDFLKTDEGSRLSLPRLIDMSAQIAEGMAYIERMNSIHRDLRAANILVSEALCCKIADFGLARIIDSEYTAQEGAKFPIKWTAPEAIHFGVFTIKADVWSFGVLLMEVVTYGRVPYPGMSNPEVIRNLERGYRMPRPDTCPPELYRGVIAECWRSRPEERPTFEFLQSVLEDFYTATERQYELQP
REPORTED_METRIC: IC50 (nM)

>>> df
                              smiles_record  observed_result
0  Cc1ccc(O)c(C)c1-c1cc(-c2cc(F)nc(N3CC[C@@H](N)C3)c2)cc(C(N)=O)c1N             60.1

###

target: Tyrosine-protein kinase HCK (Homo sapiens, UniProt P08631)
Sequence (P08631 whole entry): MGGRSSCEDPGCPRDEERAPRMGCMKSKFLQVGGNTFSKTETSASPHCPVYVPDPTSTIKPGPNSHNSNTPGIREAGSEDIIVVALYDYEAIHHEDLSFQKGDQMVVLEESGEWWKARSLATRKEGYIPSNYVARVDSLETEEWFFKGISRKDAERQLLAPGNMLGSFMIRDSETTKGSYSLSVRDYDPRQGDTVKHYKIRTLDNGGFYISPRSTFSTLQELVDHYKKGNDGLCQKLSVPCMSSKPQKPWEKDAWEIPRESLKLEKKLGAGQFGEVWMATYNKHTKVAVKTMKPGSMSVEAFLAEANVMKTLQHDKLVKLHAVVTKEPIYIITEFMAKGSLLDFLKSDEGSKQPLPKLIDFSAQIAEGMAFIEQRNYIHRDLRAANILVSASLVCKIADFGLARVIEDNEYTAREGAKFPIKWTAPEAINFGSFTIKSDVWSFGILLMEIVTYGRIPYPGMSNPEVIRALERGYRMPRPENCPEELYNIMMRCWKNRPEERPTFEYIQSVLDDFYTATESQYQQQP
pIC50: −log10 of the molar value.
REPORTED_METRIC: pIC50

In [3]: df
Out[3]:
                              smiles_record  observed_result
0  Cc1ccc(O)c(C)c1-c1cc(-c2cc(F)nc(N3CC[C@@H](N)C3)c2)cc(C(N)=O)c1N             7.31

###

Target: Ephrin type-B receptor 2 (Homo sapiens)
Sequence (P29323 whole entry): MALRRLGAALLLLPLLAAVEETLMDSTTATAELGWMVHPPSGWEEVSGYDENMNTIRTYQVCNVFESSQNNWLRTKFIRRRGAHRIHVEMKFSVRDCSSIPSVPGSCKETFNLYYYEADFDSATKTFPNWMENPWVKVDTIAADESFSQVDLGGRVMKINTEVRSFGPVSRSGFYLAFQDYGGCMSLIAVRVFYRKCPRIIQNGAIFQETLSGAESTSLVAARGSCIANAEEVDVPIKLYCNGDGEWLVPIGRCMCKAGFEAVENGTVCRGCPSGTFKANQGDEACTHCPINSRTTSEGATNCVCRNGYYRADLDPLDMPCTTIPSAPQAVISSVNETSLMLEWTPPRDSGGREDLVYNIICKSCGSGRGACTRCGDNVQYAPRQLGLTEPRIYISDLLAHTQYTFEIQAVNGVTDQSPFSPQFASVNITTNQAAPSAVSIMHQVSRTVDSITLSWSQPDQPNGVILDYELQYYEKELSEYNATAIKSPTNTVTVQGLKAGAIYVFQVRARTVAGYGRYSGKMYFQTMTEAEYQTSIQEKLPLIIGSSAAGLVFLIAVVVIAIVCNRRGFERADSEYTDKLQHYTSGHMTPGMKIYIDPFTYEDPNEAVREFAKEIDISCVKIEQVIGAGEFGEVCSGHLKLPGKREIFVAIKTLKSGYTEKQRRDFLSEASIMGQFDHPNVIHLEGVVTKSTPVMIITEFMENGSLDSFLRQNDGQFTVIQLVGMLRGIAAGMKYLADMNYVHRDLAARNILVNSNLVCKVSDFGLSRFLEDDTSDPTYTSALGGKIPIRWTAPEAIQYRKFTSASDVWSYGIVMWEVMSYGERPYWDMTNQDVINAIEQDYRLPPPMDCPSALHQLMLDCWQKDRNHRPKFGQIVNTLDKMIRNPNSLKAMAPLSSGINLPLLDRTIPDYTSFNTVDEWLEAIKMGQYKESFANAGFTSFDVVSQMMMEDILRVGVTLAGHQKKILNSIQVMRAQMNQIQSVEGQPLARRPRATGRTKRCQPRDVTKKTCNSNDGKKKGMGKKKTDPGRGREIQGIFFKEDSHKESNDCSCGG
pIC50: −log10 of the molar value.
REPORTED_METRIC: pIC50

In [3]: df
Out[3]:
                              smiles_record                            tested_target  observed_result
0  Cc1ccc(O)c(C)c1-c1cc(-c2cc(F)nc(N3CC[C@@H](N)C3)c2)cc(C(N)=O)c1N  Ephrin type-B receptor 2 (Homo sapiens)             7.57

###

assay: Cmax in Sprague-Dawley rat at 10 mg/kg, po measured upto 24 hrs by LC-MS/MS analysis; assay type: ADME, organism-based; conditions: in vivo
REPORTED_METRIC: Cmax

>>> df
                              smiles_record  observed_result
0  Cc1ccc(O)c(C)c1-c1cc(-c2cc(F)nc(N3CC[C@@H](N)C3)c2)cc(C(N)=O)c1N       6.17 ng/mL

The values you see were collected from ChEMBL document CHEMBL5584337.
